Molecular target: ZFP SBS#1291 (synthetic)
Sequence (chain, as listed by the source): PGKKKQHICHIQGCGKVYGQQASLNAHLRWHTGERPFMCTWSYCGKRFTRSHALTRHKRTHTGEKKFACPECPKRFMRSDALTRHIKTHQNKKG
Assay: EMSA
Conditions: tags: MBP fusion
readout_label: pKd
Just the number, please; pKd means minus log10 of the concentration in mol/L.

**Q:** Consider the binder shown here: GTGGTGATA (dsDNA) DNA 1: GTGGTGATA DNA 2: TATCACCAC What is its recorded pKd?
**A:** 7.69
